target: Acetylcholinesterase (Electrophorus electricus); experiment: Inhibition of electric eel AChE assessed as residual enzyme activity at 20 uM using acetylthiocholine iodide as substrate and measured for 1 min by spectrophotometrc analysis relative to control
readout kind: Ratio
Hey, just send me the number, nothing else.

>>> print(df.to_string())
                         structure_notation  data_value
0  C[N+](C)(C)CCNC(=O)[C@H](Cc1ccccc1)NC(=O)OCC1c2ccccc2-c2ccccc21.[I-]        0.99
1  C[C@H](NC(=O)OCC1c2ccccc2-c2ccccc21)C(=O)NCC[N+](C)(C)C.[I-]        0.97
2  CC(C)(C)OC(=O)n1cc(C[C@H](NC(=O)OCC2c3ccccc3-c3ccccc32)C(=O)NCC[N+](C)(C)C)c2ccccc21.[I-]        0.87
3  CC(C)(C)OC(=O)NCCCC[C@H](NC(=O)OCC1c2ccccc2-c2ccccc21)C(=O)NCC[N+](C)(C)C.[I-]           1
4  C[N+](C)(C)CCNC(=O)CNC(=O)OCC1c2ccccc2-c2ccccc21.[I-]        0.95

Please find the next molecule below.
Query block: Retrieve Ratio measured for CC(C)C[C@H](NC(=O)OCC1c2ccccc2-c2ccccc21)C(=O)NCC[N+](C)(C)C.[I-] and print it.
Result block: 1.01

---

molecular target: Trypsin (Homo sapiens) (UniProt P07477+P07478+P35030); experiment: Inhibition of trypsin (unknown origin) assessed as residual enzyme activity at 10 uM using 4-nitrophenyl acetate as substrate and measured for 1 min by spectrophotometric analysis relative to control; assay type: protein assay
Measured Ratio, listed per entry for reference.

Consider the reported Ratio for these molecules:
In [3]: df
Out[3]:
                         structure_notation  data_value
0  CC(C)(C)OC(=O)n1cc(C[C@H](NC(=O)OCC2c3ccccc3-c3ccccc32)C(=O)NCC[N+](C)(C)C)c2ccccc21.[I-]           1
1  CC(C)C[C@H](NC(=O)OCC1c2ccccc2-c2ccccc21)C(=O)NCC[N+](C)(C)C.[I-]        1.05
2  CC(C)(C)OC(=O)NCCCC[C@H](NC(=O)OCC1c2ccccc2-c2ccccc21)C(=O)NCC[N+](C)(C)C.[I-]           1
3  C[N+](C)(C)CCNC(=O)CNC(=O)OCC1c2ccccc2-c2ccccc21.[I-]        0.96
4                       O=S(=O)(F)Cc1ccccc1      < 0.01
5  C[N+](C)(C)CCNC(=O)[C@H](Cc1ccccc1)NC(=O)OCC1c2ccccc2-c2ccccc21.[I-]        1.01

Query block: Retrieve Ratio measured for C[C@H](NC(=O)OCC1c2ccccc2-c2ccccc21)C(=O)NCC[N+](C)(C)C.[I-] and print it.
Result block: 1.01

---

target: Cholinesterase (Equus caballus) (UniProt P81908); experiment: Inhibition of equine serum BuChE assessed as residual enzyme activity at 20 uM using S-butyrylthiocholine iodide as substrate and measured for 60 secs by spectrophotometric analysis relative to control; format: cell-free; details: time 60.0 sec
Exam item: assign TRUE to entries whose Ratio is below 0.1 and FALSE to entries at or above 0.1. Note that a value of exactly 0.1 receives FALSE.

Answered examples (3):
>>> df
                         structure_notation  class_assignment
0  CC(C)(C)OC(=O)NCCCC[C@H](NC(=O)OCC1c2ccccc2-c2ccccc21)C(=O)NCC[N+](C)(C)C.[I-]              TRUE
1  CC(C)C[C@H](NC(=O)OCC1c2ccccc2-c2ccccc21)C(=O)NCC[N+](C)(C)C.[I-]             FALSE
2  CC(C)(C)OC(=O)n1cc(C[C@H](NC(=O)OCC2c3ccccc3-c3ccccc32)C(=O)NCC[N+](C)(C)C)c2ccccc21.[I-]              TRUE

Query block: Given the entry C[N+](C)(C)CCNC(=O)CNC(=O)OCC1c2ccccc2-c2ccccc21.[I-] , would its reported Ratio be below 0.1?
Result block: FALSE

Query block: Given the entry C[C@H](NC(=O)OCC1c2ccccc2-c2ccccc21)C(=O)NCC[N+](C)(C)C.[I-] , would its reported Ratio be below 0.1?
Result block: FALSE

Query block: Given the entry C[N+](C)(C)CCNC(=O)[C@H](Cc1ccccc1)NC(=O)OCC1c2ccccc2-c2ccccc21.[I-] , would its reported Ratio be below 0.1?
Result block: TRUE

---

target: Cholinesterase (Equus caballus); experiment: Reversible inhibition of equine serum BuChE assessed as residual enzyme activity at IC50 using S-butyrylthiocholine iodide as substrate preincubated with enzyme for 60 mins followed by 80-fold dilution with BTC and DTNB and measured for 1 min by spectrophotometric analysis relative to control; assay type: cell-free; details: time 61.0 min
Sequence (P81908 whole entry): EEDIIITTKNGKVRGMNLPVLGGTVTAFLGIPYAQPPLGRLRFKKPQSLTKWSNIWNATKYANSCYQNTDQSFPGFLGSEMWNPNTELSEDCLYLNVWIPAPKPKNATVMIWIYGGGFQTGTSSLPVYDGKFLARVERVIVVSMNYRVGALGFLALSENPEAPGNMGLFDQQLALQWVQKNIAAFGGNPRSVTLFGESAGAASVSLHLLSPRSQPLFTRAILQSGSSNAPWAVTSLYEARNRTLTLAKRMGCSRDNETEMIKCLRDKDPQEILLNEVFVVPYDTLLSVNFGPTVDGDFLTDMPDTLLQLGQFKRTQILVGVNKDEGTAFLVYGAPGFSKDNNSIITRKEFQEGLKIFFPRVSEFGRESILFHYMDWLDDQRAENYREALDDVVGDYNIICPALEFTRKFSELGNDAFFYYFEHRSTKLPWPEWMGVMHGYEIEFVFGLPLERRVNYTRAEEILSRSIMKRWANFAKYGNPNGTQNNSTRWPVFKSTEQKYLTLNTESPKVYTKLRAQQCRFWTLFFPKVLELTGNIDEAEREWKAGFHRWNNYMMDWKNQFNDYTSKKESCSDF
Measured Ratio, listed per entry for reference.

Consider the reported Ratio for these compounds:
                         structure_notation               measurement_target  readout_kind  data_value
0  C[N+](C)(C)CCNC(=O)CNC(=O)OCC1c2ccccc2-c2ccccc21.[I-]  Cholinesterase (Equus caballus)         Ratio           1
1  CC(C)C[C@H](NC(=O)OCC1c2ccccc2-c2ccccc21)C(=O)NCC[N+](C)(C)C.[I-]  Cholinesterase (Equus caballus)         Ratio        1.01
2  CC(C)(C)OC(=O)NCCCC[C@H](NC(=O)OCC1c2ccccc2-c2ccccc21)C(=O)NCC[N+](C)(C)C.[I-]  Cholinesterase (Equus caballus)         Ratio        1.04

Query block: Retrieve Ratio measured for C[N+](C)(C)CCNC(=O)[C@H](Cc1ccccc1)NC(=O)OCC1c2ccccc2-c2ccccc21.[I-] and print it.
Result block: 1.01

Query block: Retrieve Ratio measured for CC(C)(C)OC(=O)n1cc(C[C@H](NC(=O)OCC2c3ccccc3-c3ccccc32)C(=O)NCC[N+](C)(C)C)c2ccccc21.[I-] and print it.
Result block: 0.99

Query block: Retrieve Ratio measured for C[C@H](NC(=O)OCC1c2ccccc2-c2ccccc21)C(=O)NCC[N+](C)(C)C.[I-] and print it.
Result block: 1.02

---

target: Acetylcholinesterase (Electrophorus electricus) (UniProt O42275); assay: Inhibition of electric eel AChE assessed as residual enzyme activity at 10 uM using acetylthiocholine iodide as substrate and measured for 1 min by spectrophotometrc analysis relative to control
Sequence (O42275 24-633 limits assumed): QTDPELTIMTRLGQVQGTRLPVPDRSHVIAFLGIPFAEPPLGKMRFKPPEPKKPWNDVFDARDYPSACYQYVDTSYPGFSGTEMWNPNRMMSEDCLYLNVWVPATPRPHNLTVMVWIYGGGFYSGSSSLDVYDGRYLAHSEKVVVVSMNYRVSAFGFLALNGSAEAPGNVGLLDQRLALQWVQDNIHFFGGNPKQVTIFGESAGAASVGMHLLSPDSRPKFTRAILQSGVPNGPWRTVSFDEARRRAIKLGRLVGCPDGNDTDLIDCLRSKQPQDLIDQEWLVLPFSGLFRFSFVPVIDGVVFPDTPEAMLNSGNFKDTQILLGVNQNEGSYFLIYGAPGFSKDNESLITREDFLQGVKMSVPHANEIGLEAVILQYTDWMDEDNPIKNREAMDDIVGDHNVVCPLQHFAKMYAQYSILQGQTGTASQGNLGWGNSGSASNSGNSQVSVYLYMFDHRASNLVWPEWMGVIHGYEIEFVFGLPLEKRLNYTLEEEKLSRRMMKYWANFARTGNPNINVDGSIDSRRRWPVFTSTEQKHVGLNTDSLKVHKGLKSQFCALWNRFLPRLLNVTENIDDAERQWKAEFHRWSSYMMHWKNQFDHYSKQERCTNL
Measured Ratio, listed per entry for reference.
Hey, just send me the number, nothing else.

Consider the reported Ratio for these molecules:
In [3]: df
Out[3]:
                         structure_notation  data_value
0  CC(C)(C)OC(=O)NCCCC[C@H](NC(=O)OCC1c2ccccc2-c2ccccc21)C(=O)NCC[N+](C)(C)C.[I-]        1.01
1  C[N+](C)(C)CCNC(=O)[C@H](Cc1ccccc1)NC(=O)OCC1c2ccccc2-c2ccccc21.[I-]        0.97
2  C[C@H](NC(=O)OCC1c2ccccc2-c2ccccc21)C(=O)NCC[N+](C)(C)C.[I-]           1

Query block: Retrieve Ratio measured for CC(C)C[C@H](NC(=O)OCC1c2ccccc2-c2ccccc21)C(=O)NCC[N+](C)(C)C.[I-] and print it.
Result block: 1

Query block: Retrieve Ratio measured for C[N+](C)(C)CCNC(=O)CNC(=O)OCC1c2ccccc2-c2ccccc21.[I-] and print it.
Result block: 0.99

Query block: Retrieve Ratio measured for CC(C)(C)OC(=O)n1cc(C[C@H](NC(=O)OCC2c3ccccc3-c3ccccc32)C(=O)NCC[N+](C)(C)C)c2ccccc21.[I-] and print it.
Result block: 0.96

---

biological target: UniProt:P81908; assay: Inhibition of equine serum BuChE using S-butyrylthiocholine iodide as substrate and measured for 60 secs by Ellman's method
readout kind: IC50
Please answer in the form of a number followed by its unit of measurement.

Consider the reported IC50 for these molecules:
                         structure_notation  data_value
0  CC(C)(C)OC(=O)n1cc(C[C@H](NC(=O)OCC2c3ccccc3-c3ccccc32)C(=O)NCC[N+](C)(C)C)c2ccccc21.[I-]      170 nM
1  C[N+](C)(C)CCOC(=O)CNC(=O)OCC1c2ccccc2-c2ccccc21     6700 nM
2  C[N+](C)(C)CCNC(=O)CNC(=O)OCC1c2ccccc2-c2ccccc21.[I-]     3700 nM

Query block: Retrieve IC50 measured for CC(C)C[C@H](NC(=O)OCC1c2ccccc2-c2ccccc21)C(=O)OCC[N+](C)(C)C and print it.
Result block: 700 nM

---

molecular target: Cholinesterase (Equus caballus) (UniProt P81908); test: Inhibition of equine serum BuChE assessed as residual enzyme activity at 50 uM using S-butyrylthiocholine iodide as substrate and measured for 60 secs by spectrophotometric analysis relative to control; format: cell-free; settings: time 60.0 sec
Exam item: assign YES to entries whose Ratio is below 0.07 and NO to entries at or above 0.07. Note that a value of exactly 0.07 receives NO.

Answered examples (2):
>>> df
                         structure_notation                        measurement_target  class_assignment
0  CC(C)C[C@H](NC(=O)OCC1c2ccccc2-c2ccccc21)C(=O)NCC[N+](C)(C)C.[I-]  Cholinesterase (Equus caballus) (UniProt P81908)               YES
1  CC(C)(C)OC(=O)NCCCC[C@H](NC(=O)OCC1c2ccccc2-c2ccccc21)C(=O)NCC[N+](C)(C)C.[I-]  Cholinesterase (Equus caballus) (UniProt P81908)               YES

Query block: Given the entry C[C@H](NC(=O)OCC1c2ccccc2-c2ccccc21)C(=O)NCC[N+](C)(C)C.[I-] , would its reported Ratio be below 0.07?
Result block: NO

Query block: Given the entry CC(C)(C)OC(=O)n1cc(C[C@H](NC(=O)OCC2c3ccccc3-c3ccccc32)C(=O)NCC[N+](C)(C)C)c2ccccc21.[I-] , would its reported Ratio be below 0.07?
Result block: YES

Query block: Given the entry C[N+](C)(C)CCNC(=O)[C@H](Cc1ccccc1)NC(=O)OCC1c2ccccc2-c2ccccc21.[I-] , would its reported Ratio be below 0.07?
Result block: YES
